Test system: 血浆激肽释放酶(plasma kallikrein,PK) (human, UniProt P03952 20-638)
Sequence (P03952 20-638 limits assumed): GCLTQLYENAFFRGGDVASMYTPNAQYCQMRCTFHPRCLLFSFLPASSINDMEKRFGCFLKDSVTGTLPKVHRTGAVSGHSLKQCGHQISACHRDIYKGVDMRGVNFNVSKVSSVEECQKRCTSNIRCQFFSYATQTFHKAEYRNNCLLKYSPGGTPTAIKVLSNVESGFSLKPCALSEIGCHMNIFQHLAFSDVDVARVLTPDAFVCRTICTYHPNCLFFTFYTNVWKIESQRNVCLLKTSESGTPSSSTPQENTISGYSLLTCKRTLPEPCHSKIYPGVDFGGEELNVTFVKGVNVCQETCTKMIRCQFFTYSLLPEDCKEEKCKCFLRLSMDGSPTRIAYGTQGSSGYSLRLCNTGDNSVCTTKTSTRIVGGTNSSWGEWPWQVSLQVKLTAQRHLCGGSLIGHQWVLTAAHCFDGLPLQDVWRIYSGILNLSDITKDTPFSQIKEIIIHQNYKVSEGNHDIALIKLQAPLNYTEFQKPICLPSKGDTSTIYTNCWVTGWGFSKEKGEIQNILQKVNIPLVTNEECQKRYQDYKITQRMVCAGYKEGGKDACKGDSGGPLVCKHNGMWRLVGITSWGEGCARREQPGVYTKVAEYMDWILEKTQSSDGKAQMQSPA
Assay protocol: cell-based or functional assay
Property measured: IC50(nM), PK enzyme activity on H-Pro-Phe-Arg-AMC (fluorescence)

Input line: GET /values?readout=IC50(nM), PK enzyme activity on H-Pro-Phe-Arg-AMC (fluorescence)&item= KH16 (antibody, human IgG4 S228P, kappa, V domains shown) VH: EVQLVQSGAEVKKPGATVKISCKVSGYTFTNYWMHWVQQAPGKGLEWMGAIYPGDSDTSYNQKFKGRVTITADTSTDTAYMELSSLRSEDTAVYYCTRERAYYRYDEDFDYWGQGTLVTVSS VL: DIQMTQSPSSLSASVGDRVTITCSATSIINSNYFHWYQQKPGKAPKLLIYRTSNLASGVPSRFSGSGSGTDFTFTISSLQPEDIATYYCQQGSSLPRTFGGGTKLEIKR
Output line: 0.23 nM

Input line: GET /values?readout=IC50(nM), PK enzyme activity on H-Pro-Phe-Arg-AMC (fluorescence)&item= KH12 (antibody, human IgG1, kappa, V domains shown) VH: QVQLVQSGAEVKKPGASVKVSCKASGYTFTNYWMHWVRQAPGQGLEWMGAIYPGDSDTSYNQKFKGRVTMTRDTSTSTVYMELSSLRSEDTAVYYCARERAYYRYDEDFDYWGQGTLVTVSS VL: EIVMTQSPPTLSLSPGERVTLSCSATSIINSNYFHWYQQKPGQAPRLLIYRTSNLASGIPARFSGSGSGTDFTLTISSLQPEDFAVYYCQQGSSLPRTFGGGTKLEIKR
Output line: 0.174 nM
